Molecular target: CDK2/Cyclin E1 full length (Homo sapiens (Human), UniProt P24941)
Assay: CDK2/Cyclin E1 full length mobility shift assay
I'd appreciate it if you could supply log10(Ki) values for the items below.
Log scale reminder: Ki in nM, then log10 taken.

// sample "CCCNC(=O)O[C@@H]1CC[C@H](c2cc(NC(=O)Cc3cc(C)ccc3S(C)(=O)=O)n[nH]2)C1" , its log10(Ki) was 0.09

Input "CC[C@H](C)NC(=O)O[C@H]1CC[C@@H](c2cc(NC(=O)Cc3ccno3)n[nH]2)C1" . Output log10(Ki): -0.80

Field log10(Ki) (entry "CCN(C)C(=O)O[C@@H]1CC[C@H](c2cc(NC(=O)Cc3cc(F)cc(F)c3)n[nH]2)C1" ) reads -0.28

log10(Ki) reading for "Cc1cc(CC(=O)Nc2cc([C@H]3CC[C@@H](OC(=O)N4CCCC[C@H]4C)C3)[nH]n2)on1" : -0.23

Reported log10(Ki) of "Cc1ccc(CC(=O)Nc2cc([C@@H]3CC[C@H](OC(=O)N[C@H]4CC[C@H](O)CC4)C3)[nH]n2)cn1" : -0.41

For this compound ( "O=C(Cc1cc(F)cc(F)c1)Nc1cc([C@@H]2CC[C@H](OC(=O)NC[C@H]3CCCO3)C2)[nH]n1" ), measured log10(Ki) is 0.63

// log10(Ki) lookup, compound = "CC[C@H](C)NC(=O)O[C@@H]1CC[C@H](c2cc(NC(=O)Cc3cc(C)ncc3S(C)(=O)=O)n[nH]2)C1" , result: -0.33
